From: the RNAGym collection of RNA variant scans (doi:10.1002/anie.201605470)

B1: Osa-1-4 twister ribozyme (parent)
chain: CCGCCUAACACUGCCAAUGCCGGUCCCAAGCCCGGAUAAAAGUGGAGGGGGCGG

Variants of: B1
Assay: self-cleavage, relative activity (ratio to wild type); higher = more cleavage; co-transcriptional
Below, each entry is listed with its recorded self-cleavage.

variant-identifier: G51U U24A
self-cleavage: 0.05

variant-identifier: C21A G54U
self-cleavage: 0.59

variant-identifier: G13U G50C
self-cleavage: 0.02
